Test: yeast display, Sf9 membrane polyspecificity reagent, FACS + sequencing; frameworks hold sequencing errors
MEASURE NAME: polyreactivity (PSR sort gate)

# example entries with known answers
ORDERED RESIDUES: QVQLVESGGGLVQAGGSLRLSCAASGRTFEHYAMGWYRQAPGKEREFVAVIDSSDGSTYYADSVKGRFTISRDNAKNTVYLQMNSLKPEDTAVYYCLGGYYYLQYDYWGQGTQVTVSS
polyreactivity (PSR sort gate): low polyreactivity
--
ORDERED RESIDUES: QVQLVESGGGLVQAGGSLRLSCASSGRIFSGYAMGSYRQAPAKERELVATITSGGGTYYADSVKGRFTISRDNAKNTVYFQMNSLKPEDTAVYYCNAEKKGSFRKYNYWGQGTQVTVSS
polyreactivity (PSR sort gate): low polyreactivity
--
ORDERED RESIDUES: QVQLVESGGGLVQAGGSLRLSCAASGSIFRTYAMGWYRQAPGKERELVATITFGGVSTYYADSVKGRFTISRDNAKTTVYVQKTSLKPEDTAVYYCAAEVYTRFWRVYRFDYWGQGTQVTVSS
polyreactivity (PSR sort gate): low polyreactivity
--
ORDERED RESIDUES: QVQLVESGGGLVQAGGSLRLSCAASGRIFGYYAMGWYRQAPGKERELVAAIRSSGGSTYYADSVKGRFTISRDNAKNTVYLQMNSLKPEDTAVYYCNKGAAWRPFFGPYYNYEYWGQGTQVTVSS
polyreactivity (PSR sort gate): high polyreactivity
--
ORDERED RESIDUES: QVQLVESGGGLVQAGGSLRLSCAASGNIFADYAMGWYRQAPGKERELVAAISRGGITSYADSVKGRFTISRDNAKNTVYLQMNSLKPEDTAVYYCATDRYDVYDSLGFGYWGQGTQVTVSS
polyreactivity (PSR sort gate): low polyreactivity

Give measured polyreactivity (PSR sort gate) for every item shown.
1. QVQLVESGGGLVQAGGSLRLSCAASGRIFPRYAMGWYRQAPGKERELVASISGTGSRTYYADSVKGRFTISRDNAKNTVYLQMNSLKPEDTAVYYCAAYSFRKLDYYWGQGTQVTVSS
2. QVQLVESGGGLVQAGGSLRLSCAASGFIFVYGNVMGWYRQAPGKERELVASITSDGGSTNYADSVKGRFTISRDNAKNTVYLQMNSLKPEDTAVYYCNADVPRGFGGEYDYWGQGTQVTVSS
3. QVQLVESGGGLVQAGGSLRLSCAASGSTFDGNAMGWYRQAPGKERELVAAITWRDGSTSYADSVKGRFTISRDNAKNTVYLQMNSLKPEDTAVYYCAADYEVYQVASAFDYWGQGTQVTVSS
4. QVQLVESGGGLVQAGGSLRLSCAASGSIFSSYAMGWYRQAPGKERELVAAISKSGVSTYYADSVKGRFTISRDNAKNTVYLQMNSLKPEDTAVYYCNAKGKYWHYDYWGQGTQVTVSS
5. QVQLEESGGGLVQAGGSLRLICAASGRNFGYYPMGWYRQAPGKERELVAAISGSGGTTYYADSVKGRFTISRDIAKNTVYLQMISLKPEDTAVYYCNAGFGYYWHRGFFQYDYWGQGTQVTVSS
6. QVQLVESGGGLVQAGGSLRLSCAASGRIFKIYAMGWYRQAPGKERELVAAISRGGRTYYADSVKGRFTISRDNAKNTVYLQMNSLKPEDTAVYYCAADLLISPEFYYWGQGTQVTVSS

Result string:
high polyreactivity
low polyreactivity
low polyreactivity
high polyreactivity
high polyreactivity
high polyreactivity

====

Assay: yeast display, Sf9 membrane polyspecificity reagent, FACS + sequencing; frameworks hold sequencing errors
MEASURE NAME: polyreactivity (PSR sort gate)

# example entries with known answers
ORDERED RESIDUES: QVQLVESGGGLVQAGGRLRLSCAASGRIFYLNAMGWYRQAPGKETELVAAINTSGDATYYADSEKGRFTISRDIAKNTVYLQMNSLKPEDTAVYYCAAYVIGPDQFIYDYWGQGPQVTVSS
EXPERIMENTAL VALUE: low polyreactivity

ORDERED RESIDUES: QVQLVESGGGLVQAGGSLRLSCAASGSHFSSYVMGGYRQGPGKERELVAAISSIGGSTYYADSVKGRFTISRDNAKNTVYLQMNSLKPEDTAVYYCAAEPPGSTYEGGYWGQGTQVTVSS
EXPERIMENTAL VALUE: low polyreactivity

ORDERED RESIDUES: QVQLVESGGGLVQAGGSLRLSCDASGRTFGNNAMGWYRQAPGKERELVASISSSGGTNYADSVKGRFTISRDNAKNTVYVQLNSLKPEDTAVYYCAKRKFTARQRYNYWGQGTQVTVSS
EXPERIMENTAL VALUE: high polyreactivity

ORDERED RESIDUES: QVQLVESGGGLVQAGGSLRLSCAAAGRLFGPYAMGWYGQAPGKERELVASISYSGGSTYYADSVKGRFTISRDNAKNTVYLQMNSLKAEDTAVYYCAKGGYWRGYNYWGQGTQVTVSS
EXPERIMENTAL VALUE: low polyreactivity

ORDERED RESIDUES: QVQLVESGGGLVQAGGSLRLTCAASGFTIAWNAMGWYRPSPGKERELVAAISAGGGSTYYADSVKGRFTISRDNAKNTVYLQMNSLKPEDTAVYYCAARRTFKYGSYAYYYWGQGTQVTVSS
EXPERIMENTAL VALUE: high polyreactivity

ORDERED RESIDUES: QVQLVESGGGLVQAGGSLRLSCAASGSIFTRNTMGWYRQAPGKERELVAAISTSGGDTYYADSVKGRFTISRDNAKNTVYLQMNSLKPEDTAVYFCAVVLVGVYFGYDYWGQGTQVTVSS
EXPERIMENTAL VALUE: high polyreactivity

ORDERED RESIDUES: QVQLVESGGGLVQAGGSLRLSCAASACTFNVNAMGWYRQEAGKERELVAAITNGGITNYADSVKGRFTISRDNAKNTVYLQMNSLKPEDTAVYDCAARTIYKTQSPRPFRRGYWGQGTQVTVSS
EXPERIMENTAL VALUE: high polyreactivity

ORDERED RESIDUES: QVQLVESGGGLVQAGGSLRLSCAASGFTFSENAMGWYRQAPGKERELVADITNGASTNYADSVKGRFTISRDNEKNTVYLLMNSLKPEDTAVYYCATDSYPGLNPDFDYWGLGTQVTVSS
EXPERIMENTAL VALUE: low polyreactivity

ORDERED RESIDUES: QVQLVESGGGLVQAGGSLRLSCAASGRTSGVYSMGWYRQAPGKERELVAAISRSGDSTYYADSVKGRFTISRDNAKNTVYLQMNSLKPEDTAVYYCATTFKRSMYWGQGTQVTVSS
EXPERIMENTAL VALUE: high polyreactivity

ORDERED RESIDUES: QVQLVESGGGLVQAGGSLRLSCAASGFTFYHNALGWYRQAPGKERELVATITARGGRTYYADSVKGRFTISRDNAKNTVYLQMNSLKPEDTAVYYCNVKASRGYTYEYDYWGQGTQVTVSS
EXPERIMENTAL VALUE: high polyreactivity

Give measured polyreactivity (PSR sort gate) for every item shown.
1. QVQLVESGGGLVQAGGRLLLICAASGRIFIANAMGWYSKAPGKERELVATISRSGVSTNYADSVKVRFTISRDNAKNSVYLQMNSLKPEDTAVYYCADIRSGGQGQGYGYWGQVTQVTVSS
2. QVCLQESGGGLVQACGSLRLSCAASGTISRDIFMGWYRQAPGKEREFVATIAQGGITNYADSVKGRFTISRDNAKNTVYLQMNSVKPGDTAVYYCAARDGNCYWFYYWGQGTQVTVSS

Result string:
high polyreactivity
high polyreactivity

====

Assay: yeast display, Sf9 membrane polyspecificity reagent, FACS + sequencing; frameworks hold sequencing errors
MEASURE NAME: polyreactivity (PSR sort gate)

ORDERED RESIDUES: QVQLVESGGGLVQAGGSLRLSCAASGLIFSSNAMGWYRQAPGKERELVAAISRRGGNTYYADSVKGRFTISRDNAKNTVYLQMNSLKPEDTAVYYCAARRYYVASIYRYDSWGQGTQVTVSS
EXPERIMENTAL VALUE: high polyreactivity

ORDERED RESIDUES: QVQLVESGGGLVQAGGSLRLSCAASGGTFDVNAMGWYRQAPGKERELVAAITWSGGNTYYADSVKGRFTISRDNAKNTVYLQMTSLKPEDTAVYYCATDFSPVYYTRYDYWGQGTQVTVSS
EXPERIMENTAL VALUE: low polyreactivity

ORDERED RESIDUES: QVQLVESGGGLVQAGGSLRLSCAASGGTFRVYAMGWYRQAPGKERELVASISWTVGGTYADSVKGRFTISRDNAKNTVYLQMNSLKPEDTAVYYCAAGGEWVNPYFPSSLDYWGQGTQVTVSS
EXPERIMENTAL VALUE: low polyreactivity

ORDERED RESIDUES: QVQLVESGGGLVQAGGSLRLSCAASGFIFGRYAMGWYRQAPGKERELVAAITSGGRTYYADSVKGRFTISRDNAKNTVYLQMNSLKPEDTAVYYCAKRVGRYWTAGYYWGQGTQVTVSS
EXPERIMENTAL VALUE: high polyreactivity

ORDERED RESIDUES: QVQLVESGGGLVQAGGSLRLSCAPSRYIFYPYAMGWYRQAPGKEREFVATISYRGGSTYYADSVKGRFTISRDNAKNTVYLQMNSLKPEDTAVYYCAAREPWYYGYGDYWGHGTQVTVSS
EXPERIMENTAL VALUE: high polyreactivity

Attention now turns to another entry.
polyreactivity (PSR sort gate) measured on QVQLVESGGGLVQAGGSLRLSCAASGLIFWGYTMGWYRQAPGKEREFVAAISKSAGSTFYADSVKGRFTISRDNAKNTVYLQMNSLKPEDTAVYYCATGGFPGARVAYDYYYWGQGTQVTVSS = low polyreactivity
